Listed next: entries and their corresponding IC50.
- assay-system: beta-catenin/TCF4 engagement (Homo sapiens)
- Construct: expressed in transfected cells; host or cells: HEK293
- Sequence (P35222 1-781): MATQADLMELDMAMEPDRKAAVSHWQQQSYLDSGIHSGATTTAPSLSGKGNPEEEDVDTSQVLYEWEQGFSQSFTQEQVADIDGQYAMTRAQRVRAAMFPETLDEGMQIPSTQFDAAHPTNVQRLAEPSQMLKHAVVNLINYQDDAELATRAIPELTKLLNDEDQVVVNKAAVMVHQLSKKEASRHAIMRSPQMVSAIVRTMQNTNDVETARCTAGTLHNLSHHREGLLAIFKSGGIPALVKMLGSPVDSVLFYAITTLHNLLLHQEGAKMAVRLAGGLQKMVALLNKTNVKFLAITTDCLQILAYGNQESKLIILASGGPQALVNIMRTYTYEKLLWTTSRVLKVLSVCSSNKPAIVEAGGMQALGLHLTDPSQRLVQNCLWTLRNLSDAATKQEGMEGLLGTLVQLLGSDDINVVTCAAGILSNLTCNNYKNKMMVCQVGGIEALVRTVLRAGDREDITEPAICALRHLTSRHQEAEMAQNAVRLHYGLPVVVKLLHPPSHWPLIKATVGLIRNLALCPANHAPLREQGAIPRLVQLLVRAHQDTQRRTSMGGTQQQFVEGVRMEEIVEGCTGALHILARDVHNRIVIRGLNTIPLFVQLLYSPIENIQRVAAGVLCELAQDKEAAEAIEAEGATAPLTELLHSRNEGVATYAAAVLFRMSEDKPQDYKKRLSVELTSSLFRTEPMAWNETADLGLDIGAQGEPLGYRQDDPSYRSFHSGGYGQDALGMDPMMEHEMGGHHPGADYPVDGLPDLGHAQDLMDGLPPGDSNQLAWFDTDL
- method-summary: Nano-BRET target engagement assay (B-cat-Halo & TCF4-Luc in HEK293 cells)
- Format: cell-based
- run-conditions: read-out: NanoBRET Abs IC50

INSERT INTO assay_data (molecule, assay_endpoint, test_result) VALUES
  ('CC(=O)N1CCC[C@H]1C(=O)N[C@]1(C)CCCCCCC2(CCCCCCCCOC(=O)N3CC[C@@](C(=O)N[C@@H](Cc4ccccc4C(F)(F)F)C(=O)N[C@@H](Cc4csc5ccccc45)C(=O)N[C@@H](CCC(N)=O)C(N)=O)(C3)NC(=O)[C@H](CC(C)C)NC(=O)[C@H](Cc3ccccc3)NC(=O)[C@H](C)NC(=O)[C@H](C)NC(=O)[C@H](Cc3cccc(C(=O)O)c3)NC(=O)[C@H](CC(=O)O)NC2=O)NC(=O)[C@H](CC(C)(C)C)NC(=O)[C@H](CC(=O)O)NC1=O (stereo partly drawn)', 'IC50', '> 20 µM'),
  ('CC(=O)N1CCC[C@]12CC=CCCCC1(CCCC=CCCCOC(=O)N3CC[C@@](C(=O)N[C@@H](Cc4ccccc4C(F)(F)F)C(=O)N[C@@H](Cc4csc5ccccc45)C(=O)N[C@@H](C)C(N)=O)(C3)NC(=O)[C@H](CC(C)C)NC(=O)[C@H](Cc3ccccc3)NC(=O)[C@@H](C)NC(=O)[C@H](C)NC(=O)[C@H](Cc3cccc(C(=O)O)c3)NC(=O)[C@H](CC(=O)O)NC1=O)NC(=O)[C@H](CC(C)(C)C)NC(=O)[C@H](CC(=O)O)NC2=O (stereo partly drawn)', 'IC50', '> 20 µM');

Turning now to a further record.
Request: Need IC50, item CC(=O)N1CCC[C@]12CC=CCCCC1(CCCC=CCCCOC(=O)N3CC[C@@](C(=O)N[C@@H](Cc4ccccc4)C(=O)N[C@@H](Cc4csc5ccccc45)C(=O)N[C@@H](CCO)C(N)=O)(C3)NC(=O)[C@H](CC(N)=O)NC(=O)[C@H](Cc3ccccc3)NC(=O)[C@H](C)NC(=O)[C@H](CCCCNC(C)C)NC(=O)[C@H](CCC(N)=O)NC(=O)[C@H](CC(=O)O)NC1=O)NC(=O)[C@H](CC1CCCCC1)NC(=O)[C@H](CC(N)=O)NC2=O (stereo partly drawn)
Response: > 20 µM
